This listing pairs binders with measured EC50, HEK cell assay (TauRD(P301S) split luciferase, seeded with tau fibrils).
target: T1, His-Tau40 P301L Tau fibrils (human); assay: cell-based or functional assay
T1 chain: RLRIRW
Square brackets hold non-standard residues; d marks the D form. Ends that are not written are not given here.
PROPERTY_MEASURED: EC50, HEK cell assay (TauRD(P301S) split luciferase, seeded with tau fibrils) (nM)

>  <BINDER>
RRRRRRRRRRGGSGG[dT][dL][dK][dI][dV][dW] [RRRRRRRRRR-GGSGG-tlkivw]

>  <UNIT_OF_MEASUREMENT>
nM

>  <NUMBER>
2900

$$$$
>  <BINDER>
RRRRRRRRRRGGSGG[dW][dR][dL][dK][dV][dR][dW][dW] [RRRRRRRRRR-GGSGG-wrlkvrww]

>  <UNIT_OF_MEASUREMENT>
nM

>  <NUMBER>
2300

$$$$
>  <BINDER>
RRRRRRRRRRGGSGG[dW][dK][dV][dQ][dV][dR][dL][dW] [RRRRRRRRRR-GGSGG-wkvqvrlw]

>  <UNIT_OF_MEASUREMENT>
nM

>  <NUMBER>
2100

$$$$
>  <BINDER>
RRRRRRRRRRGGSGG[dE][dL][dK][dI][dV][dW] [RRRRRRRRRR-GGSGG-elkivw]

>  <UNIT_OF_MEASUREMENT>
nM

>  <NUMBER>
11700

$$$$
>  <BINDER>
RRRRRRRRRGGSGG[dW][dR][dI][dW][dI][dR][dY][dW] [RRRRRRRRR-GGSGG-wriwiryw]

>  <UNIT_OF_MEASUREMENT>
nM

>  <NUMBER>
900

$$$$
>  <BINDER>
RRRRRRRRRRGGSGG[dL][dE][dL][dK][dI][dK][dF][dW] [RRRRRRRRRR-GGSGG-lelkikfw]

>  <UNIT_OF_MEASUREMENT>
nM

>  <NUMBER>
16400

$$$$

Hey, just so you know, these numbers are from patent US20200216495A1.
